# target-system: ferroportin (Fpn) (Mus musculus, UniProt Q9JHI9)
# Construct: host or cells: J774 mouse macrophage cell line, Fe(III)-NTA induced
# Sequence (Q9JHI9 1-570): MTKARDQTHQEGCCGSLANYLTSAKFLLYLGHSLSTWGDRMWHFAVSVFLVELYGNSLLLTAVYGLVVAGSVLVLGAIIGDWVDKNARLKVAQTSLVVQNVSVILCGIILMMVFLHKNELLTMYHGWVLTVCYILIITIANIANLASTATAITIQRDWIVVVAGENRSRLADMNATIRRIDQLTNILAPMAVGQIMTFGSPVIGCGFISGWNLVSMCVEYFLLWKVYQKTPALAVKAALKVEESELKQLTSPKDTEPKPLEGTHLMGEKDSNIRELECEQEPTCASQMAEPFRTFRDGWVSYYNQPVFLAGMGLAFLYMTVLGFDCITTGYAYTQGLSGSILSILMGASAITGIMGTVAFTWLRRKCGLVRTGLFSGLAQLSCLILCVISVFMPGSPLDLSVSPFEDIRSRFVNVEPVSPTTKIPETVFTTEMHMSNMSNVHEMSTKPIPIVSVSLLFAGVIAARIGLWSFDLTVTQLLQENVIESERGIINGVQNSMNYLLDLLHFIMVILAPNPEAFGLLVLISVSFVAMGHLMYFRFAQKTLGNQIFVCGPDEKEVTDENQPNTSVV
# assay-notes: Hepcidin Internalization Assay (J774)
# Type: cell-based
# stated-conditions: average of multiple measurements; inhibition of TMR-hepcidin (25 nM) internalization into J774 cells; read-out: J774 IC50
pIC50: −log10 of the molar value.
Record fulfilled whenever pIC50 is at 6 or higher; record not fulfilled when lower.

[
  {
    "structure-string": "O=C(NCc1ncccc1F)c1csc(CCNCc2nc3ccc(F)cc3[nH]2)n1",
    "category-label": "fulfilled"
  },
  {
    "structure-string": "O=C(NCc1ncc[nH]1)c1csc(CCNCc2nc3ccccc3[nH]2)n1",
    "category-label": "not fulfilled"
  },
  {
    "structure-string": "O=C(NCc1ncccc1F)c1cn(CCNCCc2nc3ccccc3[nH]2)nc1C(F)(F)F",
    "category-label": "fulfilled"
  },
  {
    "structure-string": "O=C(NCc1ncccc1F)c1csc(CCNCCCc2nc3ccccc3[nH]2)n1",
    "category-label": "not fulfilled"
  },
  {
    "structure-string": "O=C(NCc1ncccc1F)c1cccc(CCNCCc2nc3ccccc3[nH]2)n1",
    "category-label": "not fulfilled"
  },
  {
    "structure-string": "O=C1N[C@@H](CCN2CCCc3nc4ccccc4n3C2)C(=O)N1CCc1ncccc1F",
    "category-label": "not fulfilled"
  },
  {
    "structure-string": "O=C(NCc1ccccc1)c1csc(CCNCc2ccccn2)n1",
    "category-label": "not fulfilled"
  },
  {
    "structure-string": "O=C(NCc1ncccc1F)c1coc(CCNCc2nc3ccccc3[nH]2)n1",
    "category-label": "fulfilled"
  },
  {
    "structure-string": "Cc1ccc2[nH]c(CNCCc3nc(C(=O)NCc4ccccc4)cs3)nc2c1",
    "category-label": "not fulfilled"
  },
  {
    "structure-string": "O=C(NCc1ncccc1F)c1nc(CNCCc2nc3ccccc3[nH]2)cs1",
    "category-label": "fulfilled"
  }
]

Ref: patent US10738041B2
